B1: glmS ribozyme (parent)
chain: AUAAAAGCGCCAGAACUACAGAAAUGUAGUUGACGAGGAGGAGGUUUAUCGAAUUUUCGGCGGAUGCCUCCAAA

# Variants of: B1
# Assay Procedure: self-cleavage kobs at 10000 uM GlcN6P; higher = faster cleavage; RNA array
# Condition Notes: with glucosamine-6-phosphate
Variants at the floor of the assay were thinned out.
Overview of reported self-cleavage kobs at 10000 uM GlcN6P across a group of variants:

Study these solved cases before continuing.
{"Polymer Sequence": "AUAAAAGCGCCAGAACUAAAGAAAUGUAGUUGAGGAGGAGGAGGUUUAUCGAAUUUUCGGCGGAUGCCUCCAAA [C19A C34G]", "self-cleavage kobs at 10000 uM GlcN6P": "< 1e-05 s⁻¹"}
{"Polymer Sequence": "AUAAAAGCGCCAGCACUACAGAAAUGUAGUUGACUAGGAGGAGGUUUAUCGAAUUUUCGGCGGAUGCCUUCAAA [A14C G35U C70U]", "self-cleavage kobs at 10000 uM GlcN6P": "< 1e-05 s⁻¹"}
{"Polymer Sequence": "AUAAAAGCGCCAGAACUACAGAAAUGUAGUUGACGAGGAGGAGGUUUUUCGUAUUUUCGGCGGAUGACUCCAAA [A48U A52U C67A]", "self-cleavage kobs at 10000 uM GlcN6P": "< 1e-05 s⁻¹"}

Asked: // lookup self-cleavage kobs at 10000 uM GlcN6P for AUAAAAGCGCCAGAACUACAGAAAUGUAGUUGACGAGGAGGAGGUUUAUCGAAAUUUCGGCGGAUGCCUCAAAA [U54A C71A]
Given back: 0.0109 s⁻¹
